# ASSAY PROTOCOL: Cyclic voltammetry of the redox-active amines
# CONDITION SUMMARY: Table 1; gap between Ep^oxi and Ep^red
Please go through the items and note down their Potential gap.
Field: value (include unit after the number)

Q: State the recorded Potential gap for this entry: COc1cccc[n+]1N.O=[N+]([O-])[O-]
A: 2.46 V

Q: What value of measured Potential gap is listed for Nc1cc[n+](N)cc1 ?
A: 1.44 V

Q: Reported Potential gap, molecule CN(C)c1cc[n+](N)cc1 : ____
A: 1.28 V

Q: Fill blank: measured Potential gap of the molecule COc1cc[n+](N)cc1.[O-][Cl+3]([O-])([O-])[O-] is ____.
A: 1.75 V
